Attribute: inhibition
Protocol description: endothelial E-selectin expression blockers – imaging, HUVEC, immunofluorescence, MLSMR starter and 10KST1 sets, primary screen (AID 487);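 note: signal is fraction of cell area covered by stained E-selectin grains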
Condition notes: HUVEC TNFalpha-induced E-selectin immunofluorescence imaging, at 2 µM; hits give high values
Give the value in % but do not write % after it.

Some compounds with known inhibition results, for comparison:
INSERT INTO assay_data (compound, recorded_endpoint, endpoint_unit, number) VALUES
  ('Cc1ccccc1NC(=O)NCCCN1CCN(C2CCCCC2)CC1', 'inhibition', '%', -119),
  ('Cc1csc(NC(=O)c2ccoc2C)n1', 'inhibition', '%', 9),
  ('CC(NCc1ccco1)C(=O)N1CCc2ccccc2C1 (centres undefined)', 'inhibition', '%', 27),
  ('O=C(NCC1COc2ccccc2O1)C1CCCN(S(=O)(=O)c2cnc[nH]2)C1 (centres undefined)', 'inhibition', '%', -63.3),
  ('Cn1nnnc1SCc1cn2cccnc2n1', 'inhibition', '%', -25.9),
  ('Cn1c(SCC(=O)N2CCN(c3cccc(Cl)c3)CC2)nnc1-c1ccncc1', 'inhibition', '%', -92),
  ('CCOC(=O)c1csc(NC(=O)C2CCCCC2)n1', 'inhibition', '%', -4.9),
  ('Cc1ccc(S(=O)(=O)Cn2nnnc2CN(Cc2ccco2)CC2CCCO2)cc1 (centres undefined)', 'inhibition', '%', -58.1);

# input Fill blank: measured inhibition of the compound "CC(C)Cc1nnc(NC(=O)CCC(=O)N2CCOCC2)s1" is ____.
# output 17.3

# input Fill blank: measured inhibition of the compound "CCOc1ccc2ccccc2c1C(=O)N1CCN(c2ccccc2)CC1" is ____.
# output 44.7

# input Fill blank: measured inhibition of the compound CC(=O)NC(=O)NC1CSCC1OC(C)=O (centres undefined) is ____.
# output -110

# input Fill blank: measured inhibition of the compound Cc1ccc(C(=O)CC2(O)C(=O)N(C)c3ccc(Br)cc32)c(C)c1 (centres undefined) is ____.
# output -23.2

# input Fill blank: measured inhibition of the compound "COc1ccc(OCCOC(=O)c2cccs2)cc1" is ____.
# output -11.5

# input Fill blank: measured inhibition of the compound O=C(NC1CCCC1)C(c1cccs1)N(C(=O)c1ccno1)c1ccccc1 (centres undefined) is ____.
# output 38.6
